Here the recorded inhibition at 50 µg/mL is given for each entry.
molecular target: Lanosterol 14-alpha demethylase (Candida albicans (strain SC5314 / ATCC MYA-2876) (Yeast)); assay: Inhibition of Candida albicans lanosterol 14-alpha demethylase assessed as reduction of ergosterol biosynthesis at 50 ug/ml after 18 hrs by UV spectroscopy analysis
Hi! Could you send only the number? It should be in %, unit omitted.

input: Return inhibition at 50 µg/mL (reported value) for this compound: Cc1ccccc1NCn1nnc2ccccc21
output: 29.4

Next:
input: Input OC(Cn1cncn1)(Cn1cncn1)c1ccc(F)cc1F , output reported inhibition at 50 µg/mL.
output: 47.7

input: Tell me its inhibition at 50 µg/mL given CCCCNC(=O)c1ccc2[nH]nnc2c1 as the entry.
output: 22.7

input: Report inhibition at 50 µg/mL, nothing else, for this compound: Cc1ccccc1OCc1ccc2[nH]nnc2c1
output: 54

input: Fill in reported inhibition at 50 µg/mL for this entry: c1ccc(CNCc2ccc3[nH]nnc3c2)cc1
output: 48.5

input: Please report the measured inhibition at 50 µg/mL for CCCCNCc1ccc2[nH]nnc2c1
output: 45.5

input: For the compound Cc1ccccc1NCc1ccc2[nH]nnc2c1 , give its measured inhibition at 50 µg/mL value.
output: 65.8

input: Determine from records and report inhibition at 50 µg/mL for O=C(NCc1ccccc1)c1ccc2[nH]nnc2c1
output: 33.1

input: In one line, give reported inhibition at 50 µg/mL of the entry Cc1ccccc1NC(=O)c1ccc2[nH]nnc2c1 .
output: 35.7

----------
system: Candida albicans; experiment: Antifungal activity against Candida albicans ATCC 10231 at 50 ug/ml after 48 hrs by cup plate method; assay type: functional; conditions: ATCC 10231, 48 h
Use 30% as the dividing line for inhibition at 50 µg/mL, with the line itself on the condition met side and lower values as condition not met.

Previously resolved entries follow.
input: Threshold query (inhibition at 50 µg/mL >= 30%) on c1ccc(CNCc2ccc3[nH]nnc3c2)cc1
output: condition not met

input: Would you say CCCCNC(=O)c1ccc2[nH]nnc2c1 shows inhibition at 50 µg/mL at minimum 30%?
output: condition not met

input: Entry Cc1ccccc1NC(=O)c1ccc2[nH]nnc2c1 : is its inhibition at 50 µg/mL no less than 30%?
output: condition not met

input: Evaluate Cc1ccccc1OCc1ccc2[nH]nnc2c1 : inhibition at 50 µg/mL at minimum 30%?
output: condition met

input: Check this compound for inhibition at 50 µg/mL at or above 30%: Cc1ccccc1NCc1ccc2[nH]nnc2c1
output: condition met

input: // inclusive: inhibition at 50 µg/mL at least 30%? input: Cc1ccccc1NCn1nnc2ccccc21
output: condition not met

Now look at this entry.
input: Hi team, for O=C(NCc1ccccc1)c1ccc2[nH]nnc2c1 , is the recorded inhibition at 50 µg/mL at or above 30%?
output: condition not met

----------
biological target: Lanosterol 14-alpha demethylase (Candida albicans (strain SC5314 / ATCC MYA-2876) (Yeast), UniProt P10613); assay: Inhibition of Candida albicans lanosterol 14-alpha demethylase assessed as reduction of ergosterol biosynthesis at 100 ug/ml after 18 hrs by UV spectroscopy analysis
Sequence (P10613 whole entry): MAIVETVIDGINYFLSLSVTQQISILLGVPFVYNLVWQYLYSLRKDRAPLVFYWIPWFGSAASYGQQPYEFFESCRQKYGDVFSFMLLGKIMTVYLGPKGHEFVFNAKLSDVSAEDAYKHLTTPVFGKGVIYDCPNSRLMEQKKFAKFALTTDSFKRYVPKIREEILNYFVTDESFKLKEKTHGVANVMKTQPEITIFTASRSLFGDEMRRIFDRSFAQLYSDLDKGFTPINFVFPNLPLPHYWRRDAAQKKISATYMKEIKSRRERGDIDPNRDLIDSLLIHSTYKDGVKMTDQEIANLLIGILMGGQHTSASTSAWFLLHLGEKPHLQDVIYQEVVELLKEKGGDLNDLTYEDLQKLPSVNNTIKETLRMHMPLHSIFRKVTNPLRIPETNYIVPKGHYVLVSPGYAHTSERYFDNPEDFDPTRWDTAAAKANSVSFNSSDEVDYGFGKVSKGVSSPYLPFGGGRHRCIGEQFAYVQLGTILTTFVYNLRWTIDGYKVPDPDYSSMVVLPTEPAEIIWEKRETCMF
Listed molecules paired with reported inhibition at 100 µg/mL
Please state the value followed by its unit.

Here are 5 molecules together with their reported answers.
input: Entry Cc1ccccc1OCc1ccc2[nH]nnc2c1 needs its inhibition at 100 µg/mL filled in; supply it.
output: 54.4%

input: For the molecule Cc1ccccc1NC(=O)c1ccc2[nH]nnc2c1 , give its measured inhibition at 100 µg/mL value.
output: 42.5%

input: Give me measured inhibition at 100 µg/mL, please, for this molecule: CCCCNC(=O)c1ccc2[nH]nnc2c1
output: 38.1%

input: Report measured inhibition at 100 µg/mL; entry is Cc1ccccc1NCc1ccc2[nH]nnc2c1
output: 65.8%

input: Consider the molecule c1ccc(CNCc2ccc3[nH]nnc3c2)cc1 and give its recorded inhibition at 100 µg/mL.
output: 66%

Attention now shifts to the item below.
input: Identify inhibition at 100 µg/mL associated with the molecule OC(Cn1cncn1)(Cn1cncn1)c1ccc(F)cc1F [FLUCONAZOLE]
output: 51.2%

----------
molecular target: Lanosterol 14-alpha demethylase (Candida albicans (strain SC5314 / ATCC MYA-2876) (Yeast), UniProt P10613); test: Inhibition of Candida albicans lanosterol 14-alpha demethylase assessed as reduction of ergosterol biosynthesis at 100 ug/ml after 18 hrs by UV spectroscopy analysis
# key: entry, value: inhibition at 100 µg/mL
Report only the number, with the unit % understood.

input: Supply reported inhibition at 100 µg/mL belonging to this compound: CCCCNCc1ccc2[nH]nnc2c1
output: 47.8

input: Tell me inhibition at 100 µg/mL reported for O=C(NCc1ccccc1)c1ccc2[nH]nnc2c1
output: 41.3

Further cases:
input: Could you please provide reported inhibition at 100 µg/mL for Cc1ccccc1NCn1nnc2ccccc21 ? Thanks!
output: 31.3
